assay-target: EsaR (Pantoea stewartii subsp. stewartii, UniProt P54293);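 further: tested against 180 nM OHHL (about its EC50)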
Construct: expressed in transfected cells; host or cells: E. coli JLD271 (K12 ΔsdiA), arabinose-induced pJN105-esaR
Sequence (P54293 whole entry): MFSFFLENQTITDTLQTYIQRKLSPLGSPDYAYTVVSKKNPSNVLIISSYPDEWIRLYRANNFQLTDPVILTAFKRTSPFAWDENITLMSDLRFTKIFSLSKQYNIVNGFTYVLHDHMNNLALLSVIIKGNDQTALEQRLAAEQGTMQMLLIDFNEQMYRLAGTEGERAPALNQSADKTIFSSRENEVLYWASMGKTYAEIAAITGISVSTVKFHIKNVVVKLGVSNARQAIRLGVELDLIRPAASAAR
protocol: cell-based
measurement-parameters: 3.5 h, read-out: EsaR-activated (pesaS) antagonism
Would you mind labelling by inhibition at 100 µM? At or over -10% is label 1, under is label 0.

| compound | assay-target | discrete-label |
| --- | --- | --- |
| O=C(Cc1cccc(I)c1)N[C@H]1CCOC1=O | EsaR (Pantoea stewartii subsp. stewartii, UniProt P54293) | label 0 |
| O=C(N[C@H]1CCOC1=O)c1ccccc1 | EsaR (Pantoea stewartii subsp. stewartii, UniProt P54293) | label 1 |
| COc1cccc(CC(=O)N[C@H]2CCOC2=O)c1 [E2] | EsaR (Pantoea stewartii subsp. stewartii, UniProt P54293) | label 1 |
| O=C(Cc1ccccc1F)N[C@H]1CCOC1=O | EsaR (Pantoea stewartii subsp. stewartii, UniProt P54293) | label 1 |
| CCCCCCCCCC(=O)N[C@H]1CCOC1=O [DHL, reference compound] | EsaR (Pantoea stewartii subsp. stewartii, UniProt P54293) | label 0 |
| CCCC(=O)CC(=O)N[C@H]1CCOC1=O [OHHL, 3-oxo-hexanoyl HL, reference compound] | EsaR (Pantoea stewartii subsp. stewartii, UniProt P54293) | label 1 |
| Cc1cccc(CC(=O)N[C@H]2CCOC2=O)c1 [E1] | EsaR (Pantoea stewartii subsp. stewartii, UniProt P54293) | label 1 |
| O=C(Cc1ccc(Cl)cc1)N[C@H]1CCOC1=O | EsaR (Pantoea stewartii subsp. stewartii, UniProt P54293) | label 1 |
| O=C(Cc1ccccc1I)N[C@H]1CCOC1=O | EsaR (Pantoea stewartii subsp. stewartii, UniProt P54293) | label 0 |
| O=C(Cc1cccc([N+](=O)[O-])c1)N[C@H]1CCOC1=O | EsaR (Pantoea stewartii subsp. stewartii, UniProt P54293) | label 0 |
| O=C(Cc1ccc(I)cc1)N[C@H]1CCOC1=O | EsaR (Pantoea stewartii subsp. stewartii, UniProt P54293) | label 1 |
| O=C(Cc1cccc(Br)c1)N[C@H]1CCOC1=O | EsaR (Pantoea stewartii subsp. stewartii, UniProt P54293) | label 0 |
| CCCCCCCCCCCC(=O)N[C@H]1CCOC1=O [dDHL, reference compound] | EsaR (Pantoea stewartii subsp. stewartii, UniProt P54293) | label 0 |
| O=C(CCc1ccccc1)N[C@H]1CCOC1=O | EsaR (Pantoea stewartii subsp. stewartii, UniProt P54293) | label 0 |
| CCCCCCCCCCCCCCCC(=O)N[C@H]1CCOC1=O [hDHL, reference compound] | EsaR (Pantoea stewartii subsp. stewartii, UniProt P54293) | label 0 |
| CCCCCCCCCC(=O)CC(=O)N[C@H]1CCOC1=O [OdDHL, 3-(oxo)-dodecanoyl HL, reference compound] | EsaR (Pantoea stewartii subsp. stewartii, UniProt P54293) | label 0 |
| CSc1cccc(CC(=O)N[C@H]2CCOC2=O)c1 | EsaR (Pantoea stewartii subsp. stewartii, UniProt P54293) | label 0 |
| O=C(Cc1cc(C(F)(F)F)cc(C(F)(F)F)c1)N[C@H]1CCOC1=O | EsaR (Pantoea stewartii subsp. stewartii, UniProt P54293) | label 0 |
| CCCCCCCC(=O)CC(=O)N[C@H]1CCOC1=O [ODHL, reference compound] | EsaR (Pantoea stewartii subsp. stewartii, UniProt P54293) | label 0 |
| CCCC(=O)N[C@H]1CCOC1=O [BHL, reference compound] | EsaR (Pantoea stewartii subsp. stewartii, UniProt P54293) | label 0 |
| O=C(Cc1ccc(F)cc1)N[C@H]1CCOC1=O | EsaR (Pantoea stewartii subsp. stewartii, UniProt P54293) | label 0 |
| O=C(Cc1ccccc1Cl)N[C@H]1CCOC1=O | EsaR (Pantoea stewartii subsp. stewartii, UniProt P54293) | label 1 |
| CCCCCCCC(=O)N[C@H]1CCOC1=O [OHL, octanoyl HL, reference compound] | EsaR (Pantoea stewartii subsp. stewartii, UniProt P54293) | label 0 |
